Measured values drawn from ChEMBL document CHEMBL3232894 for this set.

assay: Oral bioavailability in cynomolgus monkey; type: ADME, organism-based, Macaca fascicularis; conditions: in vivo
Recorded Endpoint: bioavailability (%)
Numbers only here, please. The scale is %.

Req: Find the measured bioavailability of C[C@H]1CC[C@H](n2c3cnccc3c3cnc(Nc4ccc5c(n4)CCN(C(=O)CO)C5)nc32)CC1 and report it.
Resp: 44

====

Recorded Endpoint: pIC50
Expect pIC50 as a plain number equal to -log10 of the molar concentration.

Req: Provide the reported pIC50 (system: Voltage-gated inwardly rectifying potassium channel KCNH2 (Homo sapiens, UniProt Q12809)) for Clc1nccc2c3cnc(Nc4ccc(N5CCNCC5)cn4)nc3n(C3CCCC3)c12
Sequence (Q12809 whole entry): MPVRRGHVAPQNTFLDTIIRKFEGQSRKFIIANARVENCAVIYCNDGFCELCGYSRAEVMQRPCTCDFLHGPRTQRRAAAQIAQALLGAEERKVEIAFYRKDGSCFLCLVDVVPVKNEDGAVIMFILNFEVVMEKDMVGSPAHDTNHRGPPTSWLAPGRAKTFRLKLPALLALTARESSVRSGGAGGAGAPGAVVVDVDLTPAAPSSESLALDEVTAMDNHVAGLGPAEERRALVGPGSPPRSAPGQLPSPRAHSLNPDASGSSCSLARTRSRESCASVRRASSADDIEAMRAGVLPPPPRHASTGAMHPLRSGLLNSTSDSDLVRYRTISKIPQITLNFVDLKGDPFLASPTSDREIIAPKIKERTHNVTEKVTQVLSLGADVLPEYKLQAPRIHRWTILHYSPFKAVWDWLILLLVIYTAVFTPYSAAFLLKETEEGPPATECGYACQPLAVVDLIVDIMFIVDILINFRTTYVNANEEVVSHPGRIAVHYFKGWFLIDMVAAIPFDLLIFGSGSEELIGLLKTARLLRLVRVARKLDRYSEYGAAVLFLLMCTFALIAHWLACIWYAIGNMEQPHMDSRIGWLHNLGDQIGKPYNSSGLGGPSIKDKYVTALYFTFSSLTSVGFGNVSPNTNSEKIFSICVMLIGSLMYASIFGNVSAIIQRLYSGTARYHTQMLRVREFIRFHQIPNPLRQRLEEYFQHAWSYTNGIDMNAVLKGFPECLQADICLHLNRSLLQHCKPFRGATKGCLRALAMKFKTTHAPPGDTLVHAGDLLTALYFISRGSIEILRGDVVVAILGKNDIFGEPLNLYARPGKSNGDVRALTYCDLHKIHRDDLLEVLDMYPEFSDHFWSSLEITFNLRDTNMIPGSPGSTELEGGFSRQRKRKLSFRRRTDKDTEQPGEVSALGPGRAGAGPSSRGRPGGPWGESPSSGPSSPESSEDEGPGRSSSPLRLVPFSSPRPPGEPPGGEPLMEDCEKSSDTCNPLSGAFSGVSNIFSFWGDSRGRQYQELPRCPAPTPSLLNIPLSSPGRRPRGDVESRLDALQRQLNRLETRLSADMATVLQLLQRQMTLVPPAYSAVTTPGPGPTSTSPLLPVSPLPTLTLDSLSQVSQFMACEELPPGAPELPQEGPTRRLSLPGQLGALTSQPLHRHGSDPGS
Resp: 5.70
